- study.system: Estrogen receptor beta (Homo sapiens) (UniProt Q92731)
- Sequence (Q92731 whole entry, looked up): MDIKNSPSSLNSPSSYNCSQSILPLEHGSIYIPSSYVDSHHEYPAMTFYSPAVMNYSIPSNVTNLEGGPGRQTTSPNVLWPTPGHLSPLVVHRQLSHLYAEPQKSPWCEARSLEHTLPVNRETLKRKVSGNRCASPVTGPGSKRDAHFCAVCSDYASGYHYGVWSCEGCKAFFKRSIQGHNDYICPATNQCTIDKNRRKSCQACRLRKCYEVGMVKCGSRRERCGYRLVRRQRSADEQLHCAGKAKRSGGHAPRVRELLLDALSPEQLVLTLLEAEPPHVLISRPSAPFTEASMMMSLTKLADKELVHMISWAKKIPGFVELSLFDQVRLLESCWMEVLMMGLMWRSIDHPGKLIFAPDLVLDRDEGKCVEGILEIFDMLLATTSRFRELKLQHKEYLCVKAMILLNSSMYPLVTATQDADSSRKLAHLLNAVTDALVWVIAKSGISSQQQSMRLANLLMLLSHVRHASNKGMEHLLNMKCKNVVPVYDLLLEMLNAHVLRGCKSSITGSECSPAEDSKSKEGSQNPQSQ
- protocol.details: OT_ER_ERbERb_0480: Odyssey Thera (OT) 8-hour HEK293T Protein-Complementation Assay for Estrogen Receptor-beta/-beta Homodimer (AID 2283357);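 further: active means signal gain over DMSO baseline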
Inconclusive results are not listed. Activity calls are given as the source filed them. How the source made its calls: active means hit-call score of the fitted dose curve at least 0.9, where 1 is the maximum; inconclusive means response in the unintended direction; inactive means score below 0.9.
In this exercise, the only acceptable responses are TRUE = active, FALSE = inactive

Reference set, count: 6
{"columns": ["molecule", "qualitative.label"],
 "data": [
  ["CCCc1ccccc1", "FALSE"],
  ["CCCCCCOC(=O)CC(CC(=O)OCCCCCC)(OC(=O)CCC)C(=O)OCCCCCC", "FALSE"],
  ["OC[C@H]1O[C@@H]2O[C@H]3[C@H](O)[C@@H](O)[C@@H](O[C@H]4[C@H](O)[C@@H](O)[C@@H](O[C@H]5[C@H](O)[C@@H](O)[C@@H](O[C@H]6[C@H](O)[C@@H](O)[C@@H](O[C@H]7[C@H](O)[C@@H](O)[C@@H](O[C@H]1[C@H](O)[C@H]2O)O[C@@H]7CO)O[C@@H]6CO)O[C@@H]5CO)O[C@@H]4CO)O[C@@H]3CO", "FALSE"],
  ["c1ccc2cc3ccccc3cc2c1", "FALSE"],
  ["CCCCCCCC1CCC(=O)O1 (centres undefined)", "FALSE"],
  ["C[C@@H](Oc1ccc(CNC(=O)c2cccnc2Oc2ccc3c(c2)OCO3)c(F)c1)C(=O)O", "FALSE"]
]}

Field: outcome | Entry: O=C1CN(N=Cc2ccc([N+](=O)[O-])o2)C(=O)N1
FALSE

Field: outcome | Entry: OCC(CO)(CO)CO
FALSE

Field: outcome | Entry: CCc1ccc(O)c(C(C)(C)C)c1
TRUE

###

- Read-out: Hypoxia-inducible factor 1-alpha (Homo sapiens)
- protocol.details: LTEA_HepaRG_HIF1A: Life Technologies and Expression Analysis (LTEA) Assay for Hypoxia-inducible factor 1 (HIF1A) Trancription factor using HepaRG (AID 2283503);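 further: HIF1A transcript by TaqMan qRT-PCR normalized to ACTB GAPDH and POLR2A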
- measurement.parameters: mRNA level, 48 h; actives raise or lower the signal
Active and inactive are the calls of the source. How the source made its calls: active means hit-call score of the fitted dose curve at least 0.9, where 1 is the maximum; inactive means score below 0.9.
In this exercise, the only acceptable responses are active, inactive

Reference set, count: 5
{"columns": ["smiles.text", "qualitative.label"],
 "data": [
  ["NC(=O)N1c2ccccc2C=Cc2ccccc21", "inactive"],
  ["OCC(CO)(CO)CO", "inactive"],
  ["CCn1nc(C)c2c1C(=O)NCC(c1ccc(O)cc1)=N2", "inactive"],
  ["OCCOCCOCCO", "inactive"],
  ["CCCOc1ccc(S(=O)(=O)N2CCN(CC)CC2)cc1-c1nc2c(CC)n(Cc3ccccn3)nc2c(=O)[nH]1", "inactive"]
]}

Lab note: next molecule to report on.
Field: outcome | Entry: OCCNCCO
active

###

- Read-out: Collagen III, COL3A1 (gene 1281)
- protocol.details: BSK_hDFCGF_CollagenIII: BioMAP Diversity Plus: hDFCGF Assay for Collagen III Biomarker Activity (AID 2283056)
- measurement.parameters: primary human foreskin fibroblasts; actives raise or lower the signal
The source made the active and inactive calls. How the source made its calls: active means hit-call score of the fitted dose curve at least 0.9, where 1 is the maximum; inactive means score below 0.9.
In this exercise, the only acceptable responses are true (1) for active, false (0) for inactive

Field: outcome | Entry: CCCCCCCCCCCCCCO
true (1)

###

- Read-out: Cyclin Dependent Kinase Inhibitor 1A (CDKN1A), CDKN1A (gene 1026)
- protocol.details: LTEA_HepaRG_CDKN1A: Life Technologies and Expression Analysis (LTEA) Assay for Cyclin Dependent Kinase Inhibitor 1A (CDKN1A) using HepaRG (AID 2283450)
- measurement.parameters: mRNA level, 48 h; actives raise or lower the signal
Activity calls are given as the source filed them. The calls were made as follows: active = hit-call score of the fitted dose curve at least 0.9, where 1 is the maximum; inactive = score below 0.9.
In this exercise, the only acceptable responses are active, inactive

Reference set, count: 4
{"columns": ["compound", "qualitative.label"],
 "data": [
  ["CC(C)CCCCCCOC(=O)C1CCCCC1C(=O)OCCCCCCC(C)C (centres undefined)", "inactive"],
  ["CCCCCCCCN(C)C", "inactive"],
  ["C=CCc1cc(S(=O)(=O)c2ccc(O)c(CC=C)c2)ccc1O", "inactive"],
  ["O=c1[nH]cnc2c1ncn2[C@H]1CC[C@@H](CO)O1", "inactive"]
]}

Field: outcome | Entry: COCc1nnc(-c2ccc[n+]([O-])c2)n1-c1c(Cl)c(Cl)cc2[nH]c(=O)c(=O)[nH]c12
inactive

Field: outcome | Entry: OCC(CO)(CO)CO
inactive

Field: outcome | Entry: O=C(O)c1cccc(C(=O)O)c1
inactive

Field: outcome | Entry: O=C(NO)C1(NS(=O)(=O)c2ccc(Oc3ccc(F)cc3)cc2)CCOCC1
active

Field: outcome | Entry: Cc1nccn1-c1ccc(Sc2cccc(C3(C(N)=O)CCOCC3)c2)cc1
active

###

- Read-out: Lipoprotein lipase (LPL), LPL (gene 4023)
- protocol.details: LTEA_HepaRG_LPL: Life Technologies and Expression Analysis (LTEA) Assay for Lipoprotein lipase (LPL) using HepaRG (AID 2283515)
- measurement.parameters: mRNA level, 48 h; actives raise or lower the signal
Active and inactive are the calls of the source. The calls were made as follows: active = hit-call score of the fitted dose curve at least 0.9, where 1 is the maximum; inactive = score below 0.9.
In this exercise, the only acceptable responses are yes (active), no (inactive)

{"columns": ["compound", "qualitative.label"],
 "data": [
  ["CC1(C)C(=O)N(Cl)C(=O)N1Cl", "no"],
  ["CCCC(CCC)C(=O)O", "no"],
  ["COCc1nnc(-c2ccc[n+]([O-])c2)n1-c1c(Cl)c(Cl)cc2[nH]c(=O)c(=O)[nH]c12", "no"]
]}

Field: outcome | Entry: C[C@]12C=CC(=O)C=C1CC[C@H]1[C@@H]3C[C@@H](O)[C@](O)(C(=O)CO)[C@@]3(C)C[C@H](O)[C@@]12F
no

Field: outcome | Entry: CCn1nc(C)c2c1C(=O)NCC(c1ccc(O)cc1)=N2
no

Field: outcome | Entry: Cc1ccc(S(=O)(=O)NC(=O)NN2CCCCCC2)cc1
no

Field: outcome | Entry: CCN(CC)C(=S)SSC(=S)N(CC)CC
no

Field: outcome | Entry: OC[C@H]1O[C@@H]2O[C@H]3[C@H](O)[C@@H](O)[C@@H](O[C@H]4[C@H](O)[C@@H](O)[C@@H](O[C@H]5[C@H](O)[C@@H](O)[C@@H](O[C@H]6[C@H](O)[C@@H](O)[C@@H](O[C@H]7[C@H](O)[C@@H](O)[C@@H](O[C@H]1[C@H](O)[C@H]2O)O[C@@H]7CO)O[C@@H]6CO)O[C@@H]5CO)O[C@@H]4CO)O[C@@H]3CO
no

Field: outcome | Entry: C=CCc1cc(S(=O)(=O)c2ccc(O)c(CC=C)c2)ccc1O
yes

###

- Read-out: Apoptosis regulator Bcl-2 (Homo sapiens)
- protocol.details: LTEA_HepaRG_BCL2: Life Technologies and Expression Analysis (LTEA) Assay for Bcl-2 gene using HepaRG (AID 2283475);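 further: BCL2 transcript by TaqMan qRT-PCR normalised to ACTB GAPDH and POLR2A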
- measurement.parameters: mRNA level, 48 h; actives raise or lower the signal
Activity calls are given as the source filed them. The calls were made as follows: active = hit-call score of the fitted dose curve at least 0.9, where 1 is the maximum; inactive = score below 0.9.
In this exercise, the only acceptable responses are t (active), f (inactive)

{"columns": ["molecule", "qualitative.label"],
 "data": [
  ["c1ccc(C(O[C@@H]2CCCN(CCc3ccc4c(c3)OCO4)C2)c2ccccc2)cc1", "t"],
  ["OCC(CO)(CO)CO", "f"],
  ["CCc1ccc(O)c(C(C)(C)C)c1", "f"],
  ["CC[C@H](C)C(=O)O[C@H]1C[C@H](O)C=C2C=C[C@H](C)[C@H](CC[C@@H](O)C[C@@H](O)CC(=O)O)[C@H]21", "f"]
]}

Field: outcome | Entry: Cn1c(=O)c2[nH]cnc2n(C)c1=O
f

Field: outcome | Entry: O=S1(=O)CCCO1
f

###

- Read-out: DNA damage-inducible transcript 3 (DDIT3), DDIT3 (gene 1649)
- protocol.details: LTEA_HepaRG_DDIT3: Life Technologies and Expression Analysis (LTEA) Assay for DNA damage-inducible transcript 3 (DDIT3) using HepaRG (AID 2283488)
- measurement.parameters: mRNA level, 48 h; actives raise or lower the signal
Activity calls are given as the source filed them. The calls were made as follows: active = hit-call score of the fitted dose curve at least 0.9, where 1 is the maximum; inactive = score below 0.9.
In this exercise, the only acceptable responses are Y (active), N (inactive)

{"columns": ["compound", "qualitative.label"],
 "data": [
  ["Cn1cc[nH]c1=S", "N"],
  ["c1ccc(C(O[C@@H]2CCCN(CCc3ccc4c(c3)OCO4)C2)c2ccccc2)cc1", "Y"],
  ["CC(C)CCCCCCOC(=O)C1CCCCC1C(=O)OCCCCCCC(C)C (centres undefined)", "N"]
]}

Lab note: next compound to report on.
Field: outcome | Entry: O=C(O)c1cccc(C(=O)O)c1
N

###

- Read-out: Tumor necrosis factor receptor 1 (TNFRSF1A), TNFRSF1A (gene 7132)
- protocol.details: LTEA_HepaRG_TNFRSF1A: Life Technologies and Expression Analysis (LTEA) Assay for Tumor necrosis factor receptor 1 (TNFRSF1A) using HepaRG (AID 2283535)
- measurement.parameters: mRNA level, 48 h; actives raise or lower the signal
The source made the active and inactive calls. Rule for the calls: active = hit-call score of the fitted dose curve at least 0.9, where 1 is the maximum; inactive = score below 0.9.
In this exercise, the only acceptable responses are active, inactive

Reference set, count: 5
{"columns": ["smiles.text", "qualitative.label"],
 "data": [
  ["OCCNCCO", "inactive"],
  ["CCCC(CCC)C(=O)O", "inactive"],
  ["CCCCOC(=O)c1ccccc1", "inactive"],
  ["CCCCCOC(C)=O", "inactive"],
  ["c1ccc(C(O[C@@H]2CCCN(CCc3ccc4c(c3)OCO4)C2)c2ccccc2)cc1", "active"]
]}

Field: outcome | Entry: Nc1ccn([C@@H]2O[C@H](CO)[C@@H](O)[C@@H]2O)c(=O)n1
inactive

Field: outcome | Entry: Cc1nccn1-c1ccc(Sc2cccc(C3(C(N)=O)CCOCC3)c2)cc1
active

Field: outcome | Entry: CC(C)C(=O)Nc1ccc([N+](=O)[O-])c(C(F)(F)F)c1
inactive
